- TARGET ENTITY: Cbl-b (Homo sapiens, UniProt Q13191)
- Sequence (Q13191 36-427): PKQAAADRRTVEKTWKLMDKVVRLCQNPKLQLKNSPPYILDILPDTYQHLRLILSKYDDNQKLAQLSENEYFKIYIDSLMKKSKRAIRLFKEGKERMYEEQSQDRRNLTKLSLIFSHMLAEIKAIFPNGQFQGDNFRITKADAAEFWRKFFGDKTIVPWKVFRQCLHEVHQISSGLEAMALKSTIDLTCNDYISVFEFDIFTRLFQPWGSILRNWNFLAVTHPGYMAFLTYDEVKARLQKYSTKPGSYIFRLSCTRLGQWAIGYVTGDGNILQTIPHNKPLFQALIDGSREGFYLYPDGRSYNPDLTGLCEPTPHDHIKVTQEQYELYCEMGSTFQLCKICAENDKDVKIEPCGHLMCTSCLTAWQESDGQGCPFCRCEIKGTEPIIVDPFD
- TEST DETAILS: Cbl-b activity assay (Cbl-b inhibition assay), TR-FRET of Cbl-b interaction with UbcH5B-Ub
- Format: biochemical
- EXPERIMENTAL PARAMETERS: assay buffer with 100 mM NaCl, 60 nM Src kinase; read-out: Cbl-b activity IC50
pIC50: −log10 of the molar value.
TEST READOUT: pIC50

For orientation, consider the following solved cases.
[[record]]
compound = "C[C@@H](c1cc2c(c(C(F)(F)F)c1)CN(c1cccc(C3(Cc4nncn4C)COC3)c1)C2=O)N1CC(C)(F)C1 [Compound 543a]"
target_entity = "Cbl-b (Homo sapiens, UniProt Q13191)"
test_readout = "pIC50"
result_value = "> 7.00"

[[record]]
compound = "C[C@H](Cc1nncn1C)c1cccc(NC(=O)c2cc3ccccc3cn2)c1"
target_entity = "Cbl-b (Homo sapiens, UniProt Q13191)"
test_readout = "pIC50"
result_value = "6.00 to 6.52"

[[record]]
compound = "CC(c1nncn1C)C1(c2cccc(N3Cc4c(cc(CN5CCC6(CC6)C5)cc4C(F)(F)F)C3=O)c2)COC1 (stereo not shown)"
target_entity = "Cbl-b (Homo sapiens, UniProt Q13191)"
test_readout = "pIC50"
result_value = "6.00 to 6.52"


Report pIC50 for C[C@@H](Cc1nncn1C)c1cccc(N2Cc3c(cccc3C(F)(F)F)C2=O)c1 [Compound 255b] please.
5.52 to 6.00
